Sourced from patent US20150031601A1

target: serum proteins; assay: 90% serum, 30 kDa ultrafiltration, HPLC
Could you label it Satisfied if measured Protein binding (%) is 90% or higher, and Not satisfied otherwise?

Solved entries:
# Binder, Group label
rows = [
    ("GFCWRVCVRRNGVRVCHRRCN [SEQ ID NO: 335]", "Satisfied"),
    ("GFCWYVCVYRNGARVCYRRCN [SEQ ID NO: 29]", "Satisfied"),
    ("GFCWRACAYRNGKRVCYRRCN [SEQ ID NO: 417]", "Satisfied"),
    ("GFCWNVCVYRQGVRVCHRRCN [SEQ ID NO: 233]", "Not satisfied"),
    ("GFCYKVCVYRNGVRSCYRRCN [SEQ ID NO: 206]", "Not satisfied"),
]

Attention now turns to another entry.
Test whether the binder GFCWNVCVYRRGVRVCHRRCN [SEQ ID NO: 234] records Protein binding (%) of 90% or higher.
Not satisfied
